FYI, the data here is from the nanobody polyreactivity screen of Harvey et al. (2022).

- Assay Method Text: yeast display, Sf9 membrane polyspecificity reagent, FACS + sequencing; frameworks hold sequencing errors
Quantity Measured: polyreactivity (PSR sort gate)

QVQLVESGGGLVQAGGCLRLSCAASGSTFRGNAMGWYRQAPGKERELVAAITYSGGSTDYADSVKGRFTISRDNAKNTVYLQMNSLKPDDTAVYYCAARWYYYPLLYDYWGQGTQVTVSS: low polyreactivity
QVQLVESGGGLVQAGGSLRLSCAASGSTFGSYAMGWYRQAPGKERELVAAISYSGGSTYYADSVKGRFTISRDNAKNTVYLLMNSLKPEDTAVYYCATVRKYRAMDYWGQGTQVTVSS: high polyreactivity
QVQLVESGGGLVQAGGSLRLSCAASGITFWDYAMGWYRQAPGTERELVAANSRSGGSTYYADSVKGRFTISRDNAKKTVYLQMNSLKPEDTAVYFCAAYTRRPIYDYWGQGTQVTVSS: high polyreactivity
QVQLVESGGGLLHAGGSLRLSCAASGSTFILYTMGWYRQAPGKERELVAAISRSSGGTYYADSVKGRFTISRDTAKNTVYLQMNSLKTEDTAVYYCAARSRGAKYDYWGQGTQVTVSS: high polyreactivity

Q. // lookup polyreactivity (PSR sort gate) for `QVQLVESGGGLVQAGGSLRLSCAASGRTFTSYAMGWYRQAPGKERELVAGISSGGSTNYADSVKGRFTISRDNAKNTVYLQMNSLKPVDTAVYYCAAGFSPGTFYAPTLAFDYWGQGTQVTVSS`
A. low polyreactivity
